# SUBJECT OF TEST: Cytochrome P450 2C9 (Homo sapiens, UniProt P11712)
# Sequence (P11712 whole entry): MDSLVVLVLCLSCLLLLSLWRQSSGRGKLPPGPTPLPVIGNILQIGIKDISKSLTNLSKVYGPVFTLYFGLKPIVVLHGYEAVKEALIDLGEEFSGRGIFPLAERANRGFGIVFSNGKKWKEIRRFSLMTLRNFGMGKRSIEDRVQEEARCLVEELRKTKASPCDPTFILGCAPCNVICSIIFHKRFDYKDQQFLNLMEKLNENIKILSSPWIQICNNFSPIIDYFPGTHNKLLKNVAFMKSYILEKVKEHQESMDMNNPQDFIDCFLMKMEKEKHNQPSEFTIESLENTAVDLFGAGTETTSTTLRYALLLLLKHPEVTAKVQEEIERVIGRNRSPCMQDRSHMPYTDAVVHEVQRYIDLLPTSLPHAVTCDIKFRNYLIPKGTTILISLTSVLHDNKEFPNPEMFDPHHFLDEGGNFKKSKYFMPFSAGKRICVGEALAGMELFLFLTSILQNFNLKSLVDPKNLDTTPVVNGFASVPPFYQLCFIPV
# ASSAY INFO: Inhibition of CYP2C9 in human liver microsomes incubated for 10 mins by LC-MS/MS analysis
# Format: ADME, Microsome
REPORTED PROPERTY: IC50

The recorded IC50 for CCn1c(CO)nn(-c2nc(O[C@@H](C)C(F)(F)F)c(C(=O)Nc3c(C)ccnc3Cl)cc2F)c1=O is > 10 µM

----------
Dear all, this message contains pIC50 results, target or system Dihydroorotate dehydrogenase (quinone), mitochondrial (Rattus norvegicus, UniProt Q63707).
Recall that pIC50 is obtained by taking minus log10 of the concentration measured in molar.

The compound CCn1c(CO)nn(-c2nc(O[C@@H](C)C(F)(F)F)c(C(=O)Nc3c(C)ccnc3Cl)cc2F)c1=O showed pIC50 equal to 5.80

Reported pIC50 ( CCn1c(CO)nn(-c2nc(O[C@@H](C)C(F)(F)F)c(C(=O)Nc3c(C)cnc(OC)c3Cl)cc2F)c1=O ) = 6.89
